system: MDA-MB-231; experiment: Growth of human MDA-MB-231 cells at 0.1 uM after 48 hrs by SRB assay; details: MDA-MB-231, 48 h
Metric: growth, % of control at 0.1 µM (%)
Only the number, expressed in %, is required.

Completed entries (count: 3):
Smiles Repr	Measured Target	Units Of Measure	growth, % of control at 0.1 µM
CCCCCCCCCCCCCCS(=O)(=O)N(C)CCC[N+](C)(C)C	MDA-MB-231	%	102
CCCCCCCCCCCCCCS(=O)(=O)N(C)CC[N+](C)(C)CC	MDA-MB-231	%	99
CCCCCCCCCCCCCCCCS(=O)(=O)N(C)CC[N+](C)(CC)CC	MDA-MB-231	%	98.5

# get_value(readout= growth, % of control at 0.1 µM, system= MDA-MB-231) for CCCCCCCCCCCCCCCCS(=O)(=O)NCCC[N+](C)(C)C
103

# get_value(readout= growth, % of control at 0.1 µM, system= MDA-MB-231) for CCCCCCCCCCCCCCS(=O)(=O)N(C)CCC[N+](C)(C)CC
95.9

# get_value(readout= growth, % of control at 0.1 µM, system= MDA-MB-231) for C=CC[N+](C)(C)CCN(C)S(=O)(=O)CCCCCCCCCCCCCCCC
108

* * *

Below: a set of entries, each annotated with reported growth, % of control at 10 µM.
system: HCT-15; experiment: Growth inhibition of human HCT15 cells at 10 uM after 48 hrs by SRB assay; values are per cent of control; settings: HCT-15, 48 h
Only the number, expressed in %, is required.

Completed entries (count: 3):
Smiles Repr	growth, % of control at 10 µM [%]
CCCCCCCCCCCCCCCCS(=O)(=O)N(C)CC[N+](C)(C)CC	26.7
C=CC[N+](C)(C)CCN(C)S(=O)(=O)CCCCCCCCCCCCCCCC	48.7
CCCCCCCCCCCCCCCCS(=O)(=O)NCCC[N+](C)(C)C	1.7

State the recorded growth, % of control at 10 µM for this entry: CCCCCCCCCCCCCCS(=O)(=O)N(C)CCC[N+](C)(C)C
24.8

State the recorded growth, % of control at 10 µM for this entry: CCCCCCCCCCCCCCS(=O)(=O)N(C)CC[N+](CC)(CC)CC
36

State the recorded growth, % of control at 10 µM for this entry: CCCCCCCCCCCCCCS(=O)(=O)NCC(C)(C)C[N+](C)(C)CC
59.4

* * *

system: NUGC-3; assay: Growth inhibition of human NUGC3 cells at 10 uM after 48 hrs by SRB assay; values are per cent of control; settings: NUGC-3, 48 h
Metric: growth, % of control at 10 µM (%)
Only the number, expressed in %, is required.

Completed entries (count: 6):
Smiles Repr	Units Of Measure	growth, % of control at 10 µM
CCCCCCCCCCCCCCS(=O)(=O)N(C)CC[N+](C)(C)CC	%	10.1
CCCCCCCCCCCCCCS(=O)(=O)NCCC[N+](C)(C)C	%	5.4
CCCCCCCCCCCCCCCCS(=O)(=O)N(C)CC[N+](CC)(CC)CC	%	-4
CCCCCCCCCCCCCCCCS(=O)(=O)N(C)CCC[N+](C)(C)CC	%	-27.9
CCCCCCCCCCCCCCCCS(=O)(=O)NCC(C)(C)C[N+](C)(C)C	%	3
CCCCCCCCCCCCCCCCS(=O)(=O)NCC(C)(C)C[N+](C)(C)CC	%	0

# next compound below
State the recorded growth, % of control at 10 µM for this entry: CCCCCCCCCCCCCCS(=O)(=O)NCC(C)(C)C[N+](C)(C)CC
-15.7
